# Tested on: P. aeruginosa
# ASSAY INFO: Checkerboard assay (antibiotic potentiation)
# Format: cell-based, Pseudomonas aeruginosa
# EXPERIMENTAL CONDITIONS: P. aeruginosa 114228 (colistin-resistant); antibiotic alone
Examples of molecules with documented MICantibiotic follow.

MOLECULE	UNIT LABEL	RESULT COMPARATOR	MICantibiotic
CO[C@H]1/C=C/O[C@@]2(C)Oc3c(C)c(O)c4c(O)c(c(/C=N/N5CCN(C)CC5)c(O)c4c3C2=O)NC(=O)/C(C)=C\C=C\[C@H](C)[C@H](O)[C@@H](C)[C@@H](O)[C@@H](C)[C@H](OC(C)=O)[C@@H]1C [Rifampicin]	µg/mL	=	16
C[C@@H]1CN2c3c(cc4c(N5C(=O)OC[C@@H]5C)noc4c3F)CC3(C(=O)NC(=O)NC3=O)[C@H]2[C@H](C)O1 [Zoliflodacin]	µg/mL	>	128
CN(C)c1ccc(O)c2c1C[C@H]1C[C@H]3[C@H](N(C)C)C(O)=C(C(N)=O)C(=O)[C@@]3(O)C(O)=C1C2=O [Minocycline]	µg/mL	>	64
C[C@H]1COc2c(N3CCN(C)CC3)c(F)cc3c(=O)c(C(=O)O)cn1c23 [Levofloxacin]	µg/mL	=	2
CC(C)(O/N=C(\C(=O)N[C@@H]1C(=O)N2C(C(=O)[O-])=C(C[n+]3ccccc3)CS[C@H]12)c1csc(N)n1)C(=O)O [Ceftazidime]	µg/mL	=	8

---

# Tested on: A. baumannii
# ASSAY INFO: Checkerboard assay (antibiotic potentiation)
# Type: cell-based, Acinetobacter baumannii
# EXPERIMENTAL CONDITIONS: A. baumannii AB031; of antibiotic by 4 µg/mL (2 µM) compound 1
We begin with a simple list: items and their reported Potentiation.

ITEM SMILES	TARGET UNDER TEST	Potentiation / fold
CN(C)c1ccc(O)c2c1C[C@H]1C[C@H]3[C@H](N(C)C)C(O)=C(C(N)=O)C(=O)[C@@]3(O)C(O)=C1C2=O	A. baumannii	2
C[C@H]1COc2c(N3CCN(C)CC3)c(F)cc3c(=O)c(C(=O)O)cn1c23	A. baumannii	2
C[C@@H]1CN2c3c(cc4c(N5C(=O)OC[C@@H]5C)noc4c3F)CC3(C(=O)NC(=O)NC3=O)[C@H]2[C@H](C)O1	A. baumannii	32

---

Overview of reported Potentiation across a group of molecules:
# System: A. baumannii
# ASSAY INFO: Checkerboard assay (antibiotic potentiation)
# Type: cell-based, Acinetobacter baumannii
# EXPERIMENTAL CONDITIONS: A. baumannii ATCC 17978; of antibiotic by ¼ MIC (≤5 µM) of compound 1

MOLECULE	UNIT LABEL	Potentiation
C[C@H]1COc2c(N3CCN(C)CC3)c(F)cc3c(=O)c(C(=O)O)cn1c23 [Levofloxacin]	fold	2
CC(C)(O/N=C(\C(=O)N[C@@H]1C(=O)N2C(C(=O)[O-])=C(C[n+]3ccccc3)CS[C@H]12)c1csc(N)n1)C(=O)O [Ceftazidime]	fold	16
CN(C)c1ccc(O)c2c1C[C@H]1C[C@H]3[C@H](N(C)C)C(O)=C(C(N)=O)C(=O)[C@@]3(O)C(O)=C1C2=O [Minocycline]	fold	256

---

# Tested on: E. cloacae
# ASSAY INFO: Checkerboard assay (antibiotic potentiation)
# Type: cell-based, Enterobacter cloacae
# EXPERIMENTAL CONDITIONS: E. cloacae 121887 (colistin-resistant); antibiotic alone
The following compounds are shown together with reported MICantibiotic values.

COMPOUND	RESULT COMPARATOR	MICantibiotic (µg/mL)
C[C@@H]1CN2c3c(cc4c(N5C(=O)OC[C@@H]5C)noc4c3F)CC3(C(=O)NC(=O)NC3=O)[C@H]2[C@H](C)O1 [Zoliflodacin]	=	32
CO[C@H]1/C=C/O[C@@]2(C)Oc3c(C)c(O)c4c(O)c(c(/C=N/N5CCN(C)CC5)c(O)c4c3C2=O)NC(=O)/C(C)=C\C=C\[C@H](C)[C@H](O)[C@@H](C)[C@@H](O)[C@@H](C)[C@H](OC(C)=O)[C@@H]1C [Rifampicin]	>	4
C[C@H]1COc2c(N3CCN(C)CC3)c(F)cc3c(=O)c(C(=O)O)cn1c23 [Levofloxacin]	=	16
CN(C)c1ccc(O)c2c1C[C@H]1C[C@H]3[C@H](N(C)C)C(O)=C(C(N)=O)C(=O)[C@@]3(O)C(O)=C1C2=O [Minocycline]	=	0.5
CC(C)(O/N=C(\C(=O)N[C@@H]1C(=O)N2C(C(=O)[O-])=C(C[n+]3ccccc3)CS[C@H]12)c1csc(N)n1)C(=O)O [Ceftazidime]	=	0.25
